Collected soluble fraction (log2) values appear next to each entry.
Experiment: soluble fraction after stress (log2 fold change); higher = more stays soluble; pooled small domains, quantitative proteomics
Conditions: stress: 50 degC
readout: soluble fraction (log2)

In [3]: df
Out[3]:
                             orderedresidues                  readout  reportedmeasurement
 0  HMSFDNIKVGYISETAGYVKGISLADANEYAKLNPDTEFIFIDGDEKVRFLTINEVNGLTPKNLLRSDP  soluble fraction (log2)                -0.23
 1  HMENNIILNYVKDNLNITEKDAKDLIELLGSDYYHIKNETNKIAAFLDGQPYSFEKIKNLISIDKEY  soluble fraction (log2)               0.0808
 2  HMTDSLELADLLRRAIITGEYKPRERLVEMELAQKYSVSRTPVREALKHLEALGLVKMERYKGAMVAD  soluble fraction (log2)                -0.46
 3  HMSRAARLALDALPDEWAQFAESRGLAGSAMAETWETFRDYWQAQPGQKGVKADWAATWRNWVRRETQNRG  soluble fraction (log2)               -0.167
 4  HMSMFTPAQVAQTLTVPPSTLRRWAKRFAPFLSPQSGKKRTYTVADLDTFQRIKELSAQGYTFAQIDQAL  soluble fraction (log2)               -0.738
 5  HMDIHSEEYILGQNIRKYRLRLGWSQADLSNAVDIDRADISKYENGAKGIMSSTLLRKFAKALGVSMDALM  soluble fraction (log2)                -2.76
 6  HMEDADERRALEVLNQLLDLPEREQEAALAALSLPPALARRVRSLLSVQTRAADLFDTAPSP  soluble fraction (log2)              -0.0946
 7  HMVGVDMTVKEEVGKEGVTFTDLRPAGKVEIGNDIYDAVSNTGAFIQKGEKVKIIKYQAGQVYVEKLV  soluble fraction (log2)               -0.121
 8  HMTVIARQIPPLVPRMLDGLEAFIKLDVPFEEKERLARVQMLRSSLDRDNLDTAEIFRAVLEAYNIELQY  soluble fraction (log2)               0.0196
 9  HMYSLGPKERSIVSFIANRPGSRSGQIAKSLQIPLPTIKRILNGLVENKVIARHGIGAGTNYVVEDQA  soluble fraction (log2)               -0.594
10  HMVKKYEKVKEYLLERILDGTYVPDLPIPPERELASLLDVNRMTVRRAVEELMYDGYLIRKKGSGTYLTR  soluble fraction (log2)                -1.57
11  HMNLFKAPMPGLIRTIVVAEGQEVKKGDVILILEAMKMENALKSPADLVVKSIKVQQGQAVEKNQLLIEF  soluble fraction (log2)              -0.0526
12  HMAEKEYYYATDALNLRQGPGMEHTVKGEVVLGERVALLGLEGKWAKIQNAQGTTGYVFSAYLAPS  soluble fraction (log2)               0.0931
13  HMAKRKYKSFKDVAEFAQKLGIKSSTEWWAYVRGHEIPSDIPKDPSTYYKKEWTTWGDFLGTGYVSSA  soluble fraction (log2)                0.154
14  HMLAIKKGGIFAILGPNGSGKSTFSKVLAGHPAYTVVDGDIFFKGLSILDLEPEERSHLGIFLAFQ  soluble fraction (log2)               -0.153
15  HMYNKKAYVNTNSDFLNVRSEASTESSVVDKLARGTEVNIVGNIQNGFYPIVLNEKNAWVSSDWISFEKPT  soluble fraction (log2)                0.227
16  HMGQKDYKTRLQEYFAKQGLKVNYEDTSHGPDHNKNFSTDVFLDGKIIGSGIGKSKKSSQQSAAKDALNIL  soluble fraction (log2)                0.338
